Biological target: T1, HCMV pUL50, C-terminally fused to the HA epitope (pcDNA-UL50-HA, pHM2589) (human cytomegalovirus (HCMV) strain …, UniProt P16791 1-397)
T1 sequence: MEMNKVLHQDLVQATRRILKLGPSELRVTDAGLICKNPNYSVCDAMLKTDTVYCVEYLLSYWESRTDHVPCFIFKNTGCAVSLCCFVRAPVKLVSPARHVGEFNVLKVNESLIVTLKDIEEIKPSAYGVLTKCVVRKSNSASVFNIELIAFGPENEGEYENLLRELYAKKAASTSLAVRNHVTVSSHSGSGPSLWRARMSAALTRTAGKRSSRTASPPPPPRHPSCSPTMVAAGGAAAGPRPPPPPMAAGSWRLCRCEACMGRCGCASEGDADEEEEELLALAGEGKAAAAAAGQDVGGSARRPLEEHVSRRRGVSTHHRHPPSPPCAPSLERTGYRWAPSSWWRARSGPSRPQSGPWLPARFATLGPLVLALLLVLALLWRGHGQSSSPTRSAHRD
Assay: coimmunoprecipitation, transiently transfected 293T cells
measureName: binding result

{"columns": ["binder", "measureName", "endpointValue"],
 "data": [
  ["MCMV pM53, C-terminally fused to the Flag epitope (pcDNA-M53-Flag, pHM4718) (other, also called pM53-Flag; Flag-tagged pM53) MFRSPEGEERDAADREEEEGGEARRRSRMMMSPRRVKRARHRPAGSGLRTPLRSPSACRCSSPSPERQWQQRRRAEKRSTTPTDPPPPPKRSAASAAAGAAAPESEYLNVKLSELHDVFQRHPDLEQKYLKIMKLPITGKESIRLPFDFKSHRQHTCLDLSPYGNDQVSRSACTTCKETTRLPTASDSMVAFINQTSNVMKHRKFYFGFRKNMELLKMAANQPQLFQIYYIVQSCVQEIVPLIYYDREMAHMQLIFEKETVHIPSQCIEQILTVAKDAYGVSLDIAHQRITLTARCLRLESSSLRIDVLMLQRKVDELEIPNETNEKFESYSLDYKDDDDK", "binding result", "binds"]
]}

Attribution: patent US20210396761A1
